System: Vero
Assay: Cytotoxicity against Chlorocebus aethiops (African green monkey) Vero cells after 72 hr by XTT assay
Assay type: cell-based
Settings: Chlorocebus sabaeus
experimental readout: pIC50
Schema: pIC50 number; meaning minus log10 of the concentration expressed in molar units.

Report pIC50, nothing else, for this compound: Cc1ccccc1NC(=O)CN1C(=O)C(=O)c2cc(Br)cc(Br)c21 4.52

Consider the compound Cc1ccc(NC(=O)CN2C(=O)C(=O)c3cc(Br)cc(Br)c32)cc1 . State its measured pIC50. 4.60

Give pIC50 for the following compound: O=C(CN1C(=O)C(=O)c2cc(Br)cc(Br)c21)Nc1ccccc1[N+](=O)[O-] 4.59

Please look at this compound and report its pIC50: CC[C@]1(O)C[C@@H]2CN(CCc3c([nH]c4ccccc34)[C@@](C(=O)OC)(c3cc4c(cc3OC)N(C)[C@H]3[C@@](O)(C(=O)OC)[C@H](OC(C)=O)[C@]5(CC)C=CCN6CC[C@]43[C@@H]65)C2)C1 [VINBLASTINE] 4.57

Determine from records and report pIC50 for O=C(CN1C(=O)C(=O)c2cc(Br)cc(Br)c21)Nc1ccccc1 4.55

Please give measured pIC50 of the following entry: O=C(CN1C(=O)C(=O)c2cc(Br)cc(Br)c21)Nc1ccc([N+](=O)[O-])cc1 4.42
